Every entry's value here was drawn from patent US20250054582A1.

R (Size of HSP Sphere) values by entry
- experiment.description: HSPiP analysis: Hansen Solubility Sphere of the matrikine from solubility scores
- Format: physicochemical
- experimental.parameters: overall results summary
Peptide text beside a SMILES is read from it.
State the answer as a number, implicitly in MPa^0.5.

Consider the following illustrative entries.
molecule	property.label	reported.result
CCCCCCCCCCCCCCCC(=O)N[C@@H](CC(C)C)C(=O)N[C@@H](CO)C(=O)N[C@H](C(=O)N[C@@H](CC(=O)O)C(=O)O)C(C)C [Pal-LSVD] (HELM PEPTIDE1{[CCCCCCCCCCCCCCCC(=O)[*:2]].L.S.V.D}$$$$V2.0)	R (Size of HSP Sphere)	6.8
CCCCCCCCCCCCCCCC(=O)NCC(=O)N1CCC[C@H]1C(=O)N[C@@H](CCCCN)C(=O)NCC(=O)O [Pal-GPKG] (HELM PEPTIDE1{[CCCCCCCCCCCCCCCC(=O)[*:2]].G.P.K.G}$$$$V2.0)	R (Size of HSP Sphere)	8.3
CCCCCCCCCCCCCCCC(=O)N[C@@H](CCC(N)=O)C(=O)N[C@H](C(=O)N[C@@H](C)C(=O)N[C@H](C(=O)O)C(C)C)[C@@H](C)O [Pal-QTAV] (HELM PEPTIDE1{[CCCCCCCCCCCCCCCC(=O)[*:2]].Q.T.A.V}$$$$V2.0)	R (Size of HSP Sphere)	6
CCCCCCCCCCCCCCCC(=O)N[C@@H](CCC(=O)O)C(=O)N[C@@H](CCCCN)C(=O)NCC(=O)N[C@@H](CC(=O)O)C(=O)O [Pal-EKGD] (HELM PEPTIDE1{[CCCCCCCCCCCCCCCC(=O)[*:2]].E.K.G.D}$$$$V2.0)	R (Size of HSP Sphere)	10.3

Switching to the query record.
Input: Can you share its R (Size of HSP Sphere)? I mean this molecule: CCCCCCCCCCCCCCCC(=O)NCC(=O)N[C@@H](Cc1c[nH]cn1)C(=O)N[C@@H](CCCCN)C(=O)O [Pal-GHK, N-Palmitoyl-Gly-His-Lys] (HELM PEPTIDE1{[CCCCCCCCCCCCCCCC(=O)[*:2]].G.H.K}$$$$V2.0)
Output: 3.5

====

# radius per entry
- experiment.description: HSPiP analysis: Hansen Solubility Sphere of the matrikine from solubility scores
- Assay type: physicochemical
- experimental.parameters: radius of the HSP sphere
Peptide text beside a SMILES is read from it.
Report the figure in units without appending any unit label.

Look over these answered cases.
molecule	radius (units)
CCCCCCCCCCCCCCCC(=O)N[C@@H](CCC(N)=O)C(=O)N[C@H](C(=O)N[C@@H](C)C(=O)N[C@H](C(=O)O)C(C)C)[C@@H](C)O [Pal-QTAV] (HELM PEPTIDE1{[CCCCCCCCCCCCCCCC(=O)[*:2]].Q.T.A.V}$$$$V2.0)	6
CCCCCCCCCCCCCCCC(=O)NCC(=O)N[C@@H](Cc1c[nH]cn1)C(=O)N[C@@H](CCCCN)C(=O)O [Pal-GHK, N-Palmitoyl-Gly-His-Lys] (HELM PEPTIDE1{[CCCCCCCCCCCCCCCC(=O)[*:2]].G.H.K}$$$$V2.0)	3.5
CCCCCCCCCCCCCCCC(=O)NCC(=O)N1CCC[C@H]1C(=O)N[C@@H](CCCCN)C(=O)NCC(=O)O [Pal-GPKG] (HELM PEPTIDE1{[CCCCCCCCCCCCCCCC(=O)[*:2]].G.P.K.G}$$$$V2.0)	8.3
CCCCCCCCCCCCCCCC(=O)N[C@@H](CCC(=O)O)C(=O)N[C@@H](CCCCN)C(=O)NCC(=O)N[C@@H](CC(=O)O)C(=O)O [Pal-EKGD] (HELM PEPTIDE1{[CCCCCCCCCCCCCCCC(=O)[*:2]].E.K.G.D}$$$$V2.0)	10.3

Input: Could you share which radius value was measured for CCCCCCCCCCCCCCCC(=O)N[C@@H](CC(C)C)C(=O)N[C@@H](CO)C(=O)N[C@H](C(=O)N[C@@H](CC(=O)O)C(=O)O)C(C)C [Pal-LSVD] (HELM PEPTIDE1{[CCCCCCCCCCCCCCCC(=O)[*:2]].L.S.V.D}$$$$V2.0) ?
Output: 6.8

====

Listed here are molecules together with their documented δH.
- experiment.description: HSPiP analysis: Hansen Solubility Sphere of the matrikine from solubility scores
- Assay type: physicochemical
- experimental.parameters: Hansen Solubility Parameter of the peptide, overall results summary
Peptide text beside a SMILES is read from it.
Reply briefly: the number, and no unit.

Examples with answers:
molecule	δH
CCCCCCCCCCCCCCCC(=O)N[C@@H](CC(C)C)C(=O)N[C@@H](CO)C(=O)N[C@H](C(=O)N[C@@H](CC(=O)O)C(=O)O)C(C)C [Pal-LSVD] (HELM PEPTIDE1{[CCCCCCCCCCCCCCCC(=O)[*:2]].L.S.V.D}$$$$V2.0)	14.82
CCCCCCCCCCCCCCCC(=O)NCC(=O)N1CCC[C@H]1C(=O)N[C@@H](CCCCN)C(=O)NCC(=O)O [Pal-GPKG] (HELM PEPTIDE1{[CCCCCCCCCCCCCCCC(=O)[*:2]].G.P.K.G}$$$$V2.0)	17.73
CCCCCCCCCCCCCCCC(=O)NCC(=O)N[C@@H](Cc1c[nH]cn1)C(=O)N[C@@H](CCCCN)C(=O)O [Pal-GHK, N-Palmitoyl-Gly-His-Lys] (HELM PEPTIDE1{[CCCCCCCCCCCCCCCC(=O)[*:2]].G.H.K}$$$$V2.0)	11.22
CCCCCCCCCCCCCCCC(=O)N[C@@H](CCC(=O)O)C(=O)N[C@@H](CCCCN)C(=O)NCC(=O)N[C@@H](CC(=O)O)C(=O)O [Pal-EKGD] (HELM PEPTIDE1{[CCCCCCCCCCCCCCCC(=O)[*:2]].E.K.G.D}$$$$V2.0)	17.26

Lab note: next molecule to report on.
Input: Would you mind telling me what δH value was observed for CCCCCCCCCCCCCCCC(=O)N[C@@H](CCC(N)=O)C(=O)N[C@H](C(=O)N[C@@H](C)C(=O)N[C@H](C(=O)O)C(C)C)[C@@H](C)O [Pal-QTAV] (HELM PEPTIDE1{[CCCCCCCCCCCCCCCC(=O)[*:2]].Q.T.A.V}$$$$V2.0) ?
Output: 10.95

====

- experiment.description: HSPiP analysis: Hansen Solubility Sphere of the matrikine from solubility scores
- Assay type: physicochemical
- Design: unit not given here
- experimental.parameters: Hansen Solubility Parameter of the peptide, overall results summary
Peptide text beside a SMILES is read from it.
property.label: δD

Consider the worked cases shown below.
compound	δD
CCCCCCCCCCCCCCCC(=O)N[C@@H](CC(C)C)C(=O)N[C@@H](CO)C(=O)N[C@H](C(=O)N[C@@H](CC(=O)O)C(=O)O)C(C)C [Pal-LSVD] (HELM PEPTIDE1{[CCCCCCCCCCCCCCCC(=O)[*:2]].L.S.V.D}$$$$V2.0)	18.84
CCCCCCCCCCCCCCCC(=O)N[C@@H](CCC(N)=O)C(=O)N[C@H](C(=O)N[C@@H](C)C(=O)N[C@H](C(=O)O)C(C)C)[C@@H](C)O [Pal-QTAV] (HELM PEPTIDE1{[CCCCCCCCCCCCCCCC(=O)[*:2]].Q.T.A.V}$$$$V2.0)	17.61
CCCCCCCCCCCCCCCC(=O)NCC(=O)N1CCC[C@H]1C(=O)N[C@@H](CCCCN)C(=O)NCC(=O)O [Pal-GPKG] (HELM PEPTIDE1{[CCCCCCCCCCCCCCCC(=O)[*:2]].G.P.K.G}$$$$V2.0)	17.82
CCCCCCCCCCCCCCCC(=O)NCC(=O)N[C@@H](Cc1c[nH]cn1)C(=O)N[C@@H](CCCCN)C(=O)O [Pal-GHK, N-Palmitoyl-Gly-His-Lys] (HELM PEPTIDE1{[CCCCCCCCCCCCCCCC(=O)[*:2]].G.H.K}$$$$V2.0)	17.83

Turning now to a further compound:
Input: Give the measured δD of CCCCCCCCCCCCCCCC(=O)N[C@@H](CCC(=O)O)C(=O)N[C@@H](CCCCN)C(=O)NCC(=O)N[C@@H](CC(=O)O)C(=O)O [Pal-EKGD] (HELM PEPTIDE1{[CCCCCCCCCCCCCCCC(=O)[*:2]].E.K.G.D}$$$$V2.0) .
Output: 17.31

====

- experiment.description: HSPiP analysis: Hansen Solubility Sphere of the matrikine from solubility scores
- Assay type: physicochemical
- experimental.parameters: in words; HSPiP fit of solubility scores
- Method: The HSP sphere of seven different matrikines was determined by using a range of reference solvents (solvents with known HSP spheres) to dissolve the matrikines. The reference solvents were then ranked based on their ability to dissolve the matrikines. A software package called Hansen Solubility Parameters in Practice (HSPiP) was then used to determine the HSPs of each of the matrikines. […]
Peptide text beside a SMILES is read from it.
property.label: δD value

Some compounds with recorded δD value:
compound	reported.result
CCCCCCCCCCCCCCCC(=O)NCC(=O)N1CCC[C@H]1C(=O)N[C@@H](CCCCN)C(=O)NCC(=O)O [Pal-GPKG] (HELM PEPTIDE1{[CCCCCCCCCCCCCCCC(=O)[*:2]].G.P.K.G}$$$$V2.0)	moderate
CCCCCCCCCCCCCCCC(=O)N[C@@H](CCC(N)=O)C(=O)N[C@H](C(=O)N[C@@H](C)C(=O)N[C@H](C(=O)O)C(C)C)[C@@H](C)O [Pal-QTAV] (HELM PEPTIDE1{[CCCCCCCCCCCCCCCC(=O)[*:2]].Q.T.A.V}$$$$V2.0)	moderate
CCCCCCCCCCCCCCCC(=O)N[C@@H](CC(C)C)C(=O)N[C@@H](CO)C(=O)N[C@H](C(=O)N[C@@H](CC(=O)O)C(=O)O)C(C)C [Pal-LSVD] (HELM PEPTIDE1{[CCCCCCCCCCCCCCCC(=O)[*:2]].L.S.V.D}$$$$V2.0)	high
CCCCCCCCCCCCCCCC(=O)NCC(=O)N[C@@H](Cc1c[nH]cn1)C(=O)N[C@@H](CCCCN)C(=O)O [Pal-GHK, N-Palmitoyl-Gly-His-Lys] (HELM PEPTIDE1{[CCCCCCCCCCCCCCCC(=O)[*:2]].G.H.K}$$$$V2.0)	moderate

Kindly consider the entry below.
Input: So what's the measured δD value for this one? CCCCCCCCCCCCCCCC(=O)N[C@@H](CCC(=O)O)C(=O)N[C@@H](CCCCN)C(=O)NCC(=O)N[C@@H](CC(=O)O)C(=O)O [Pal-EKGD] (HELM PEPTIDE1{[CCCCCCCCCCCCCCCC(=O)[*:2]].E.K.G.D}$$$$V2.0)
Output: moderate
